Source listed as patent US11174252B2.

target or system: PI3Kδ kinase (Homo sapiens (Human), UniProt O00329)
Sequence (O00329 whole entry): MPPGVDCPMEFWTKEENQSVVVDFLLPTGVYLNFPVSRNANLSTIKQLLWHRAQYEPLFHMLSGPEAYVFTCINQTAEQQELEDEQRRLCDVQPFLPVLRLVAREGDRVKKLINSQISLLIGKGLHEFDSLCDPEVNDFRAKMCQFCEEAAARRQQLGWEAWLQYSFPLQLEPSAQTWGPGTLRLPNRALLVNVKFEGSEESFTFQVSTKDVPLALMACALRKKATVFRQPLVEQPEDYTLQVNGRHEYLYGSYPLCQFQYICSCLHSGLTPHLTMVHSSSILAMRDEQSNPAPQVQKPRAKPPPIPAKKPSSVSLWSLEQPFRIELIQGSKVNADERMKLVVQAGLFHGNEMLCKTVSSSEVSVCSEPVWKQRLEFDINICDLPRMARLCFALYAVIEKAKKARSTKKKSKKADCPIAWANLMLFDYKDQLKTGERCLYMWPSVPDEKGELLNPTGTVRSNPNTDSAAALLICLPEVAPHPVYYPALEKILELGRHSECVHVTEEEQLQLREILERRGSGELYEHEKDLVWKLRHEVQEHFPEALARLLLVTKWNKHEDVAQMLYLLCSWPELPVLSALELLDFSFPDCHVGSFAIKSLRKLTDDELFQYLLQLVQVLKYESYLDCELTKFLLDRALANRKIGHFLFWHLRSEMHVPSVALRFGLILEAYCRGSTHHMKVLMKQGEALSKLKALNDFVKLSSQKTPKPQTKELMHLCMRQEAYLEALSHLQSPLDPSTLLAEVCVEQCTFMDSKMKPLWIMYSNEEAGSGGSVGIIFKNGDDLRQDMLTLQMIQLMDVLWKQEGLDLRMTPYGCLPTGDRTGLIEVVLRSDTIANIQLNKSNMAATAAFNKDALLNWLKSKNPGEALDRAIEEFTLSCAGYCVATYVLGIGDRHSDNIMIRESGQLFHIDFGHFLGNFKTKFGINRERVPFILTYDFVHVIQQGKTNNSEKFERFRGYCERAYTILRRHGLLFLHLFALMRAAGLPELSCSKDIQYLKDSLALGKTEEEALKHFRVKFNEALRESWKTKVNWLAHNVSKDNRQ
Sequence (P27986 whole entry partner): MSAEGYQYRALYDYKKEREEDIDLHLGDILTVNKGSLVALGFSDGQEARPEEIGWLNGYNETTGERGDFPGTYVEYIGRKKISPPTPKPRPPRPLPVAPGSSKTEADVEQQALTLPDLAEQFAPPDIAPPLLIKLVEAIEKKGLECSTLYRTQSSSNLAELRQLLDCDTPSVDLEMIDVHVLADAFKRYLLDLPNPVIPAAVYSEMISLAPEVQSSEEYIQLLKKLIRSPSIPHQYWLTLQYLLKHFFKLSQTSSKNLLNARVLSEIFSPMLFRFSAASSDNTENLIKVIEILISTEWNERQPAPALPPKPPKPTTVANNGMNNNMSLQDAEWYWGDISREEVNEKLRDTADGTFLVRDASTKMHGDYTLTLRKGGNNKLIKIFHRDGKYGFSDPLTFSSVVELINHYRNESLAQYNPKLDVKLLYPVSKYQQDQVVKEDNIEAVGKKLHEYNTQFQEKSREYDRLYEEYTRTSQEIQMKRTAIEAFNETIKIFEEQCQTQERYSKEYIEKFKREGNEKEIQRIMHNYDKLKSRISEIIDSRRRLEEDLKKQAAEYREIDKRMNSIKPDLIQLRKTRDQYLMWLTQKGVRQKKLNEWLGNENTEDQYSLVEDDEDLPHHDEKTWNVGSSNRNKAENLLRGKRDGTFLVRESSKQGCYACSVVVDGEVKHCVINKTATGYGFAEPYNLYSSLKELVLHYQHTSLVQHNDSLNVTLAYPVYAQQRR
run description: PI3Kδ kinase ADP-Glo assay (Reaction Biology Corporation)
condition notes: read-out: PI3Kδ IC50
Each record here notes measured IC50.
Output spec: scalar in µM, unitless text.

compound	test readout	obs value
CC(=O)N1CCN(c2ccc(Nc3ncc(F)c(-c4cc(F)c5c(c4)N(C(C)C)CCO5)n3)nc2)CC1 [Compound 474]	IC50	1.16
Fc1cnc(Nc2ccc(N3CCCNCC3)cn2)nc1-c1cc(F)c2c(c1)N(C1CCCC1)CCO2 [Compound 478]	IC50	33.7
CC(C)CN1CCOc2c(F)cc(-c3nc(Nc4ccc(C5CCN(C)CC5)c(F)c4)ncc3F)cc21 [Compound 476]	IC50	0.703
CC(C)N1CCOc2c(F)cc(-c3nc(Nc4ccc(N5CCOCC5)cn4)ncc3F)cc21 [Compound 446]	IC50	21.8
CC(C)N1CCOc2c(F)cc(-c3nc(Nc4ccc(N5CCNCC5)nc4)ncc3F)cc21 [Compound 23]	IC50	4.88
CC(C)N1CCOc2c(F)cc(-c3nc(Nc4ccc(N5CCS(=O)(=O)CC5)c(F)c4)ncc3F)cc21 [Compound 465]	IC50	0.397
CC(C)N1CCOc2c(F)cc(-c3nc(Nc4ccc(N5CCN6CCCC6C5)c(F)c4)ncc3F)cc21 (stereo not drawn) [Compound 473]	IC50	3.17
CC(C)N1CCOc2c(F)cc(-c3nc(Nc4ccc5c(c4)CCN(C(=O)CN(C)C)C5)ncc3F)cc21 [Compound 456]	IC50	19.5

# query: IC50 of entry CC(C)N1CCOc2c(F)cc(-c3nc(Nc4ccc5c(c4)CN(C(=O)CN(C)C)CC5)ncc3F)cc21 [Compound 455]
13.1
